system: U2OS; assay: Multiplex assay against U2OS; format: toxicity, cell-based; conditions: human, 12 h, 10 µM, compound concentration 10 uM, replicate 2
readout: Population Hoechst High Intensity Objects (%)
State the answer as a number, implicitly in %.

// worked examples, Population Hoechst High Intensity Objects (%) included
* Oc1c(CN2CCN(c3ccccn3)CC2)cc(Cl)c2cccnc12 | 1
* Cc1ccc(/C(=C\CN2CCCC2)c2ccccn2)cc1 [TRIPROLIDINE] | 0
* C[C@@H]1C[C@H]2[C@@H]3CCC4=CC(=O)C=C[C@]4(C)[C@@]3(F)[C@@H](O)C[C@]2(C)[C@@]1(O)C(=O)CO [DEXAMETHASONE] | 0

Item: Cc1ccccc1C(=O)Nc1ccc(C(=O)N2CCCC(N(C)C)c3ccccc32)cc1.Cl (stereo not drawn) | Population Hoechst High Intensity Objects (%): 1
